Molecular target: ERK2 (human, UniProt P28482 1-360)
Sequence (P28482 whole entry): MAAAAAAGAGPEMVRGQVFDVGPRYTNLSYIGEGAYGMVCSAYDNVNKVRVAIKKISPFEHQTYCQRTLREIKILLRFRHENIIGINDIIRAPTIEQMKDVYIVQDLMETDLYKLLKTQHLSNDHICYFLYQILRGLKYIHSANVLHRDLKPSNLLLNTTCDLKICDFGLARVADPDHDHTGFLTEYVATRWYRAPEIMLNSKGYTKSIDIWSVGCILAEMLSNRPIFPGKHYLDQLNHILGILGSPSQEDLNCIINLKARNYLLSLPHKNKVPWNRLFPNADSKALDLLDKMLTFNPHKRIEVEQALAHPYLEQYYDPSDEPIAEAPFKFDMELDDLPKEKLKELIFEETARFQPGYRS
Experiment: fluorescence polarisation
propertyLabel: Kd

Input: // returns reported Kd for input ASKPPGERNIHGLKVNTRA [pepMKK5 (peptide with the linear D-motif of MKK5)]
Output: > 100 µM
